The measurements presented in this section are drawn from the supplement of paper PMC11208160.

PROCEDURE_SUMMARY: recombinant UMI read abundance after kanamycin selection (control-corrected) (log10(CPM+1)); higher = more efficient recombination; extreme values may be limits of the assay; sequences stand for … in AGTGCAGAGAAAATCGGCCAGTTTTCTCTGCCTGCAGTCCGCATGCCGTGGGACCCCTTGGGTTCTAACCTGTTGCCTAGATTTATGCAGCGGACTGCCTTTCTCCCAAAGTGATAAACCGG…AGGTTGGTTTCACT; site = the 11-nt donor;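 note: IS621 bridge recombinase in Escherichia coli cells against a fixed T5 target plasmid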
Binary call on recombinant UMI read abundance (log10): true from 0.06 upward, false beneath that.

Previously resolved entries follow.
- SEQUENCE_ENTRY: "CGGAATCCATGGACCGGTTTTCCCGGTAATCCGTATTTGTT (site CGGAAATCTAA)"
  CLASSIFICATION: "false"
- SEQUENCE_ENTRY: "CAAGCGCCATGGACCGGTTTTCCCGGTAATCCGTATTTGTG (site CAAGCGCCTCG)"
  CLASSIFICATION: "true"
- SEQUENCE_ENTRY: "AGAAAGGCATGGACCGGTTTTCCCGGTAATCCGTATTTGCA (site AGAAAGGCTAG)"
  CLASSIFICATION: "false"
- SEQUENCE_ENTRY: "CGACCATCATGGACCGGTTTTCCCGGTAATCCGTATTTGGT (site CGATCATCTAG)"
  CLASSIFICATION: "false"
- SEQUENCE_ENTRY: "TCGTGCACATGGACCGGTTTTCCCGGTAATCCGTATTTGAC (site TCGTGCACTGT)"
  CLASSIFICATION: "true"
- SEQUENCE_ENTRY: "AACAGTCCATGGACCGGTTTTCCCGGTAATCCGTATTTGAT (site AACTGTCCTAT)"
  CLASSIFICATION: "false"
- SEQUENCE_ENTRY: "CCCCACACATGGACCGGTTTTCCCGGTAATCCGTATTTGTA (site TCCCACACTTA)"
  CLASSIFICATION: "false"
- SEQUENCE_ENTRY: "CTCCCTACATGGACCGGTTTTCCCGGTAATCCGTATTTGTG (site CTCCCTACTCT)"
  CLASSIFICATION: "false"

Request: Please indicate if the recorded recombinant UMI read abundance (log10) for GTATCCACATGGACCGGTTTTCCCGGTAATCCGTATTTGTA (site GTATTCACTTA) meets or exceeds 0.06.
Result: false

Request: Please indicate if the recorded recombinant UMI read abundance (log10) for CGATTATCATGGACCGGTTTTCCCGGTAATCCGTATTTGCT (site CGATAATCTAG) meets or exceeds 0.06.
Result: true

Request: Please indicate if the recorded recombinant UMI read abundance (log10) for CGCTCCTCATGGACCGGTTTTCCCGGTAATCCGTATTTGCC (site CGCTCCTCTGG) meets or exceeds 0.06.
Result: true

Request: Please indicate if the recorded recombinant UMI read abundance (log10) for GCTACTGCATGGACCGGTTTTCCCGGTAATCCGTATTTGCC (site ACTACTGCTGG) meets or exceeds 0.06.
Result: true

Request: Please indicate if the recorded recombinant UMI read abundance (log10) for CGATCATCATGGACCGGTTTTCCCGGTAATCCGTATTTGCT (site CGCTAATCTAG) meets or exceeds 0.06.
Result: false

Request: Please indicate if the recorded recombinant UMI read abundance (log10) for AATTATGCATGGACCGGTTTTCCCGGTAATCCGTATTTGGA (site AAATATGCTTC) meets or exceeds 0.06.
Result: true

Request: Please indicate if the recorded recombinant UMI read abundance (log10) for ACTGGTGCATGGACCGGTTTTCCCGGTAATCCGTATTTGGT (site ACTAGTGCTAC) meets or exceeds 0.06.
Result: true

Request: Please indicate if the recorded recombinant UMI read abundance (log10) for GCGTCAACATGGACCGGTTTTCCCGGTAATCCGTATTTGGT (site GCGTCAACTAC) meets or exceeds 0.06.
Result: true

Request: Please indicate if the recorded recombinant UMI read abundance (log10) for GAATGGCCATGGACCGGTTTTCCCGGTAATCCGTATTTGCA (site GAATGGGCTTG) meets or exceeds 0.06.
Result: false

Request: Please indicate if the recorded recombinant UMI read abundance (log10) for GTCAATCCATGGACCGGTTTTCCCGGTAATCCGTATTTGAA (site GTCAATCCTTT) meets or exceeds 0.06.
Result: true

Request: Please indicate if the recorded recombinant UMI read abundance (log10) for GTGAAGCCATGGACCGGTTTTCCCGGTAATCCGTATTTGGG (site GCGAAGCCTCC) meets or exceeds 0.06.
Result: false

Request: Please indicate if the recorded recombinant UMI read abundance (log10) for TTATCATCATGGACCGGTTTTCCCGGTAATCCGTATTTGCT (site TTATCATCTAG) meets or exceeds 0.06.
Result: true

Request: Please indicate if the recorded recombinant UMI read abundance (log10) for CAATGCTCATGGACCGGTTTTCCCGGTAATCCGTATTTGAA (site CAATGCTCTAT) meets or exceeds 0.06.
Result: true

Request: Please indicate if the recorded recombinant UMI read abundance (log10) for CAAATCCCATGGACCGGTTTTCCCGGTAATCCGTATTTGCT (site CAAATCCCTAG) meets or exceeds 0.06.
Result: false

Request: Please indicate if the recorded recombinant UMI read abundance (log10) for CAAGCAACATGGACCGGTTTTCCCGGTAATCCGTATTTGCT (site CAAGCAACTAG) meets or exceeds 0.06.
Result: true

Request: Please indicate if the recorded recombinant UMI read abundance (log10) for GAATGCTCATGGACCGGTTTTCCCGGTAATCCGTATTTGAA (site GAATGCTCTTT) meets or exceeds 0.06.
Result: true

Request: Please indicate if the recorded recombinant UMI read abundance (log10) for CCCCAGACATGGACCGGTTTTCCCGGTAATCCGTATTTGTA (site CCCCAAACTTA) meets or exceeds 0.06.
Result: true
